# Survival per record follows
- Tested on: Plasmodium berghei
- Experiment Description: Antimalarial activity against GFP-tagged Plasmodium berghei ANKA infected in NMRI mouse assessed as mouse survival at 100 mg/kg, po administered as single dose 24 hrs post infection measured on day 30 post infection
Give the value in days but do not write days after it.

Some entries whose results are on file:
- CC(C)(N)C(=O)N1CCn2c(nc(-c3ccc(F)cc3)c2Nc2ccc(Cl)cc2)C1: 13
- NCC(=O)N1CCn2c(nc(-c3cccc(F)c3)c2Nc2ccc(F)cc2)C1: 10
- CC(C)(N)C(=O)N1CCn2c(nc(-c3ccc(F)cc3)c2Nc2ccc(F)c(F)c2)C1: 17
- C[C@H]1[C@H](OC(=O)CCC(=O)O)O[C@@H]2O[C@@]3(C)CC[C@H]4[C@H](C)CC[C@@H]1[C@@]24OO3 [ARTESUNATE]: 6.7
- CC(C)(N)C(=O)N1CCn2c(nc(-c3ccc(F)cc3)c2Nc2ccc(Cl)c(F)c2)C1: 11

As a next step, examine the compound that follows.
Query: Recorded Survival for CCN(CC)CCCC(C)Nc1ccnc2cc(Cl)ccc12 (stereo unspecified) , please?
Reply: 12

###

- Experiment Description: in vitro
- Condition Summary: rat, microsomes
- Description: Metabolic stability in rat hepatic microsomes assessed as extraction ratio by LC/MS/MS analysis
# hepatic extraction ratio per record follows
No unit in the answer, only the number.

• CC(C)(N)C(=O)N1CCn2c(nc(-c3ccc(F)cc3)c2Nc2ccc(Cl)cc2)C1 = 0.43

Query: Recorded hepatic extraction ratio for CC(C)(N)C(=O)N1CCn2c(nc(-c3ccc(F)cc3)c2Nc2ccc(F)c(F)c2)C1 , please?
Reply: 0.12

Query: What do you have for CC(C)(N)C(=O)N1CCn2c(nc(-c3ccc(F)cc3)c2Nc2ccc(Cl)c(F)c2)C1 ?
Reply: 0.67

###

- Experiment Description: Volume of distribution in male BALB/c mouse at 5 mg/kg, iv by LC/MS/MS analysis
- Assay type: ADME, organism-based
- Set-up: dose 5 mg/kg, route intravenous
- Condition Summary: in vivo
# Vd per record follows
In your response, put the unit directly after the numeric value.

- CC(C)(N)C(=O)N1CCn2c(nc(-c3ccc(F)cc3)c2Nc2ccc(F)c(F)c2)C1: 14 L/kg

Query: Recorded Vd for CC(C)(N)C(=O)N1CCn2c(nc(-c3ccc(F)cc3)c2Nc2ccc(F)cc2)C1 , please?
Reply: 23.7 L/kg

###

Observed IC50 for Cytochrome P450 3A4 (Homo sapiens, UniProt P08684), reported per entry below.

Some entries whose results are on file:
* CC(C)(N)C(=O)N1CCn2c(nc(-c3ccc(F)cc3)c2Nc2ccc(F)cc2)C1 | > 8.9 µM
* NCC(=O)N1CCn2c(nc(-c3ccccc3)c2Nc2ccc3c(c2)OCO3)C1 | > 10 µM

As a next step, examine the compound that follows.
Query: Recorded IC50 for CC(C)(N)C(=O)N1CCn2c(nc(-c3ccc(F)cc3)c2Nc2ccc(F)c(F)c2)C1 , please?
Reply: > 8.9 µM

###

- Study System: Cytochrome P450 2C19 (Homo sapiens, UniProt P33261)
- Sequence (P33261 whole entry): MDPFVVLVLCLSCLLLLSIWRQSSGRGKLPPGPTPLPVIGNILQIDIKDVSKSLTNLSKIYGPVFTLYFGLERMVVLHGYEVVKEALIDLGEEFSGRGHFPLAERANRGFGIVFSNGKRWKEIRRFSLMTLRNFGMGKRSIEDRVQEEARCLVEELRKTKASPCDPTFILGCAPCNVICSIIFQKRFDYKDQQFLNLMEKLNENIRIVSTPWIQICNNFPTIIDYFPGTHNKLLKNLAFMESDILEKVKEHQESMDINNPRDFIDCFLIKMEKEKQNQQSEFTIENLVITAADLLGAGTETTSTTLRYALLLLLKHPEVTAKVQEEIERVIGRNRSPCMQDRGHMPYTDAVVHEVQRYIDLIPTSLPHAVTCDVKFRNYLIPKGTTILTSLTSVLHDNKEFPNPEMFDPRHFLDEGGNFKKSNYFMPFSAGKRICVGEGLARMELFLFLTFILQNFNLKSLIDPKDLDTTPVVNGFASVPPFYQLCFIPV
- Experiment Description: Inhibition of CYP 2C19
- Type: ADME
pIC50: −log10 of the molar value.
# pIC50 per record follows

• CC(C)(N)C(=O)N1CCn2c(nc(-c3ccc(F)cc3)c2Nc2ccc(F)cc2)C1 = < 5.05

As a next step, examine the compound that follows.
Query: Recorded pIC50 for CC(C)(N)C(=O)N1CCn2c(nc(-c3ccc(F)cc3)c2Nc2ccc(F)c(F)c2)C1 , please?
Reply: < 5.05
